assayed-target: BaPif1 F379A (Bacteroides fragilis (title/abstract: Bacteroides sp))
experimental-details: fluorescence polarization
experimental-setup: Fluorescence polarization: 2.5 nM T15-3'F, buffer and temperature not in the material; crystals: 80 mM NaCl, 40 mM sodium cacodylate pH 6.0, 35% MPD, 12 mM …
measured-quantity: pKd
Field pKd (float): negative decimal logarithm of the concentration in molar.

The value of pKd measured for the sequence TTTTTTTTTTTTTTT [T15-3'F] turned out to be 6.60

====

assayed-target: BaPif1 H236A (Bacteroides fragilis (title/abstract: Bacteroides sp)) (UniProt A0A373G551)
experimental-details: fluorescence polarization
experimental-setup: Fluorescence polarization: 2.5 nM T15-3'F, buffer and temperature not in the material; crystals: 80 mM NaCl, 40 mM sodium cacodylate pH 6.0, 35% MPD, 12 mM …
measured-quantity: Kd (nM)
Field format: number, assumed nM, no unit text.

Query TTTTTTTTTTTTTTT [T15-3'F] yields Kd of 200

====

assayed-target: BaPif1 wild type (Bacteroides fragilis (title/abstract: Bacteroides sp))
experimental-details: fluorescence polarization
experimental-setup: Fluorescence polarization: 2.5 nM T15-3'F, buffer and temperature not in the material; crystals: 80 mM NaCl, 40 mM sodium cacodylate pH 6.0, 35% MPD, 12 mM …
measured-quantity: Kd (nM)
Numbers only; they are read as nM.

Short answer for TTTTTTTTTTTTTTT [T15-3'F] : Kd was 74
